Data origin, for the record: the Biogen ADME set (Fang et al. 2023)

Measured property: intrinsic clearance, rat liver microsomes (mL/min/kg)

- CN(C)C(C)(C)CNc1ncnc2ccccc12: 293
- CC(C)c1noc(-c2ccc(N)cc2)n1: 158
- Cc1ccc(-c2ccc(-c3nccn3CCCn3cnnc3)o2)cc1: 541
- CCCC1(CNC(=O)Cn2ccc(=O)cc2)CCC1: 14.6

(A) O=C(NC1CCCCC1)C1CCN(c2ccncc2Cl)CC1
(B) CN1CCC(n2ncc3[nH]c(-c4ccc5ccccc5c4)nc32)CC1
Input line: // compare measured intrinsic clearance, rat liver microsomes, left A , right B , return larger Your answer should be the label attached to the chosen record.
Output line: B

(a) Cc1c(O)cccc1OCCN1CCOCC1
(b) Cc1cc(Br)cn(Cc2ccc(C#N)cc2F)c1=O
(c) Clc1ccc(CSc2nc(-c3ccccc3)cs2)cn1
(d) Cc1nc2cc(-c3nccn3C)nn2c(NCc2cccnc2)c1C
Input line: Rank descending by intrinsic clearance, rat liver microsomes. The reply should contain the labels ordered as requested.
Output line: c, d, b, a

(1) c1ccc(Cc2nnc(NC3CCOCC3)s2)cc1
(2) COc1ccc(OCc2n[nH]c(-c3n[nH]c4c3CCC4)n2)cc1
(3) Cc1cccc(NC(=O)C(=O)c2c(C)nn(C)c2C)n1
(4) O[C@@H]1CO[C@H]2C[C@@H]1Nc1c(-c3ccccc3)cccc12
Input line: Sort (4 compounds) by intrinsic clearance, rat liver microsomes: min first. The reply should contain the labels ordered as requested.
Output line: 1, 3, 4, 2
(1: 20.6 mL/min/kg, 3: 231 mL/min/kg, 4: 367 mL/min/kg, 2: 1070 mL/min/kg)

(a) COCC1(CNS(=O)(=O)c2ccccc2)CCC1
(b) Cc1[nH]nc(CCC(=O)NCCCOC2CCCCC2)c1C
(c) COc1cc(-c2cnc(NC3CC3)nc2-c2cccs2)nc(OC)n1
Input line: Rank descending by intrinsic clearance, rat liver microsomes. The reply should contain the labels ordered as requested.
Output line: b, a, c
(b: 4360 mL/min/kg, a: 996 mL/min/kg, c: 485 mL/min/kg)
